The following compounds are listed with their measured CC50 values.
- PROCEDURE DETAILS: Cytotoxicity against human THP1 cells
- Assay type: cell-based
- CONDITION SET: THP-1 cells
QUANTITY NAME: CC50 (µM)

In [3]: df
Out[3]:
                                   compound  reading_unit  comparison_symbol  endpoint_result
0  Cc1ccsc1[C@@H]1C[C@H](O)Cc2cc(Cl)ccc2N1 (relative stereo)            µM                  =              181
1  O=[N+]([O-])c1ccc([C@@H]2C[C@H]3Cc4cc(OC(F)(F)F)ccc4N2O3)o1 (racemic)            µM                  =              404
2  Cc1ccsc1[C@@H]1C[C@H]2Cc3cc(Cl)ccc3N1O2 (racemic)            µM                  =              250
3  Cc1ccsc1[C@@H]1C[C@H](O)Cc2ccccc2N1 (relative stereo)            µM                  =              579
4  Cc1ccsc1[C@@H]1C[C@H]2Cc3cc(OC(F)(F)F)ccc3N1O2 (racemic)            µM                  >             1760
5  c1coc([C@@H]2C[C@H]3Cc4ccccc4N2O3)c1 (racemic)            µM                  =              663
6  Cc1ccc([C@@H]2C[C@H]3Cc4cc(OC(F)(F)F)ccc4N2O3)o1 (racemic)            µM                  =              176
7  Cc1ccc([C@@H]2C[C@H]3Cc4cc(OC(F)(F)F)ccc4N2O3)s1 (racemic)            µM                  =              282
8  FC(F)(F)Oc1ccc2c(c1)C[C@@H]1C[C@@H](c3ccoc3)N2O1 (racemic)            µM                  >             1930
